Measured values drawn from ChEMBL document CHEMBL1134774 for this set.

- assayed.target: Acetylcholinesterase (Electrophorus electricus)
- Sequence (O42275 whole entry): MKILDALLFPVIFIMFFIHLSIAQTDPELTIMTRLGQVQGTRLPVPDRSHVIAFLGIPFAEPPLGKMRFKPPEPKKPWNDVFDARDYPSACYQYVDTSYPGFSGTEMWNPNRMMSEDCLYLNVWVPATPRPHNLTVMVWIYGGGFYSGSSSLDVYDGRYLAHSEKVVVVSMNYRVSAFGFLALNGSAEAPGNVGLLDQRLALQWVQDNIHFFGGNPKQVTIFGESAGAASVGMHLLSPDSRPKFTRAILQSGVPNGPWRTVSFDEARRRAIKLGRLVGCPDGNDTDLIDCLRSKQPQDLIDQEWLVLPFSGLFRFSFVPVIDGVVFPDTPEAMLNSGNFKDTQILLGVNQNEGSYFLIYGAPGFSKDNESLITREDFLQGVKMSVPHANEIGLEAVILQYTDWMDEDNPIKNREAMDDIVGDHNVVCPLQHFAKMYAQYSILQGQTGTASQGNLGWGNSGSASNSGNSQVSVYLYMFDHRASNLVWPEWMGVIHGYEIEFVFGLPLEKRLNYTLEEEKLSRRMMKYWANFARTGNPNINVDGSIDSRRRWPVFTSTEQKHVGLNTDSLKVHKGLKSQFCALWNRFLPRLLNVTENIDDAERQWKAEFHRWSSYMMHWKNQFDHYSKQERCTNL
Binary label based on IC50 with cut-off 200 nM: below gives class 1, not below gives class 0.

Reference set, count: 4
{"compound.string": "N#Cc1ccc(-c2ccc(NCCC3CCN(Cc4ccccc4)CC3)nn2)cc1", "classification": "class 1"}
{"compound.string": "Cc1cc(-c2ccccc2)nnc1NCCC1CCN(Cc2ccccc2)CC1", "classification": "class 0"}
{"compound.string": "c1ccc(CN2CCC(CCN=c3[nH]nc(-c4ccccc4)c4ccccc34)CC2)cc1", "classification": "class 0"}
{"compound.string": "Cc1cc(C)c(-c2ccc(NCCC3CCN(Cc4ccccc4)CC3)nn2)c(C)c1", "classification": "class 0"}

In: Consider `CC(=O)c1cccc(-c2ccc(NCCC3CCN(Cc4ccccc4)CC3)nn2)c1` . Does its IC50 lie strictly below 200 nM?
Out: class 1
